Measured GI50 accompanies every entry in the list below.
test system: UACC-62 melanoma; assay: NCI tumour cell line growth inhibition, 48 h
Metric: GI50

>>> observed_measurement("Cn1ccc2c(c1=O)C(=O)c1nccc3c1c-2nc1ccccc13")
"1540 nM"
>>> observed_measurement("CC(C)C[C@H](NC(=O)[C@H]1O[C@@H]1C(=O)O)C(=O)NCCc1ccc(O)cc1")
"> 100000 nM"
>>> observed_measurement("C/C(=C\\c1ccn(-c2ccc(N)c(F)c2)n1)[C@@H]1C[C@@H]2O[C@]2(C)CCC[C@H](C)[C@H](O)[C@@H](C)C(=O)C(C)(C)[C@@H](O)CC(=O)O1")
"51.7 nM"
>>> observed_measurement("O=C(/C=C/c1cccs1)c1ccc(Nc2nc(Nc3ccc(F)cc3)nc(Nc3ccc(F)cc3)n2)cc1")
"> 100000 nM"
